These measurements were taken from PubChem BioAssay (NCATS).

Test: Quantitative High-Throughput drug screen in 47 multiple myeloma cell lines against the NCATS MIPE library collection: KHM11_PLB cell viability assay (AID 1918962); note: nearly all actives have a fitted effect of over 35% in size; note: potency is the fitted concentration of half-maximal effect
Conditions: KHM11 myeloma cell viability, CellTiter-Glo ATP luminescence, 48 h; series mostly up to 45.8 µM
Inconclusive results are not listed. Calls of active or inactive are those of the source. Calls come from the whole dose curve; as a rule, active = well fitted cell-killing curve with a large enough effect; inconclusive = small, poorly fitted or top-dose-only effect, or effect the other way; inactive = no such curve, though single readings can be large or run the other way.
result.type: Potency

# molecule, result
data = [
    ("CCCCC[C@H](O)C=C[C@H]1[C@H](O)CC(=O)[C@H]1CC=CCCCC(=O)O", "5.9 µM (active)"),
    ("CC1CCN(c2cc(N3CCN(C)CC3)ccc2NC(=O)c2cc(C#N)c[nH]2)CC1", "inactive"),
    ("Cc1cnc(CNC(=O)c2c(=O)c3ccc(N4CCCN(C)CC4)nc3n3c2sc2ccccc23)cn1", "inactive"),
    ("CCOc1ccccc1N=Nc1c(C)[nH]n(-c2nc(-c3ccccc3)cs2)c1=O", "inactive"),
    ("O=C(O)CCNc1cc(N2CCc3ccccc3CC2)nc(-c2ccccn2)n1", "inactive"),
    ("CC[C@H](NC(=O)[C@H](C)NC)C(=O)N1C[C@@H](O)C[C@H]1Cc1c(-c2[nH]c3cc(F)ccc3c2C[C@H]2C[C@H](O)CN2C(=O)[C@H](CC)NC(=O)[C@H](C)NC)[nH]c2cc(F)ccc12", "inactive"),
    ("CCOC(=O)[C@H]1O[C@H]1C(=O)N[C@@H](CC(C)C)C(=O)NCCC(C)C", "inactive"),
    ("Cc1nc(NC(=O)N2CCC[C@@H]2C(N)=O)sc1-c1csc(C(C)(C)C)n1", "3.72 µM (active)"),
    ("COc1ccc(C=CC(=O)Nc2ccccc2C(=O)O)cc1OC", "inactive"),
    ("OCCn1cc(-c2ccc3c(c2)CCC3=NO)c(-c2ccncc2)n1", "4.69 µM (active)"),
    ("C=CCc1cccc(C=NNC(=O)CN2CCN(Cc3ccccc3)CC2)c1O", "20.9 µM (active)"),
    ("CC(C)CNc1ccnc(NCc2csc(-c3ccccc3)n2)n1", "9.35 µM (active)"),
    ("Clc1ccc(C2(c3ccc(-c4cn[nH]c4)cc3)CCNCC2)cc1", "11.8 µM (active)"),
    ("CCN(CC)CCCCNc1nc2cc(Cl)c(Cl)cc2nc1-c1ccc(-c2cccs2)s1", "10.5 µM (active)"),
    ("COC(=O)Nc1ccc(-c2nc(N3CCOCC3)c3cnn(C4CCN(C(=O)OC)CC4)c3n2)cc1", "0.0833 µM (active)"),
    ("CNC(=O)[C@H](Cc1ccccc1)NC(=O)[C@H](CC(C)C)[C@H](CSc1cccs1)C(=O)NO", "inactive"),
    ("COC1CCC(C(=O)c2ccc3nc4c(cc3c2)CCCO4)CC1 (centres undefined)", "9.35 µM (active)"),
    ("NC(=O)c1nnn(Cc2cc(Cl)c(C(=O)c3ccc(Cl)cc3)c(Cl)c2)c1N", "inactive"),
    ("Cc1cccc(-c2[nH]c(C(C)(C)C)nc2-c2ccc3c(c2)OCO3)n1", "1.18 µM (active)"),
]

###

Entries and their max response
System: CRL-7250
Assay: Cytotoxic Profiling of Annotated Libraries Using Quantitative High-Throughput Screening (AID 1296008); note: % is set by controls: 0 for no effect and ±100 for the full control effect; nearly all actives have a fitted effect of over 60% in size
Details: Five cell lines viability, CellTiter-Glo ATP luminescence, 48-72 h; stronger effect = lower value
Inconclusive results are not listed.
result.type: max response (%)

# molecule, result.type, numeric.result
measured = [
    ("CCNC(=O)CCCC=CC[C@@H]1[C@H](C=CC(O)CCc2ccccc2)[C@@H](O)C[C@@H]1O (some centres undefined)", "max response", -10.2),
    ("CCCC1OC2C[C@@H]3[C@H]4CCC5=CC(=O)C=C[C@]5(C)[C@H]4C(O)C[C@]3(C)[C@]2(C(=O)CO)O1 (some centres undefined)", "max response", -14.4),
    ("CC=C1C2C=C(C)CC1(N)c1ccc(=O)[nH]c1C2 (centres undefined)", "max response", 3.51),
    ("CN(CC=CC#CC(C)(C)C)Cc1cccc2ccccc12", "max response", 1.65),
    ("OC[C@H]1O[C@@H](O[C@H]2[C@@H](O)[C@@](O)(CO)O[C@@H]2CO)[C@H](O)[C@@H](O)[C@@H]1O", "max response", -0.0942),
    ("CC1=C(C(=O)Nc2cc3cn[nH]c3cc2F)C(c2ccc(C(F)(F)F)cc2)CC(=O)N1 (centres undefined)", "max response", 1.25),
    ("CCCCC(C)(C)[C@H](O)C=C[C@H]1[C@H](O)CC(=O)[C@H]1CC=CCCCC(=O)O", "max response", -10.4),
    ("C[C@@H](NC(=O)c1ncnc(N)c1Cl)c1ncc(C(=O)Nc2cc(C(F)(F)F)c(Cl)cn2)s1", "max response", -9.83),
    ("CN(C)CCN(Cc1ccc(Cl)cc1)c1ccccn1", "max response", 4.38),
    ("CCOC(=O)[C@H]1O[C@H]1C(=O)N[C@@H](CC(C)C)C(=O)NCCC(C)C", "max response", -2.98),
    ("COc1ccc2c(c1)CC[C@H]1[C@@H]2CC[C@]2(C)[C@@H](NCCCCCCN3C(=O)C=CC3=O)CC[C@H]12", "max response", -3.42),
    ("CCC=CC[C@H]1C(=O)CC[C@@H]1CC(=O)OC", "max response", -0.832),
    ("CC(=O)N1CCN(c2ccc(OCc3nn(C)c(C)c3-c3cccc4c(CCCOc5cc(C)c(Cl)c(C)c5)c(C(=O)O)n(Cc5cccnc5)c34)cc2)CC1", "max response", 4.49),
    ("Oc1ccc(C=Cc2cc(O)cc(O)c2)cc1", "max response", -12.2),
    ("CC(C)CN(C[C@@H](O)[C@H](Cc1ccccc1)NC(=O)O[C@H]1CO[C@H]2OCC[C@H]21)S(=O)(=O)c1ccc(N)cc1", "max response", -22),
    ("N#CC(c1ccnc(NCCc2cccnc2)n1)c1nc2ccccc2s1 (centres undefined)", "max response", -3.29),
    ("COC(=O)[C@H](c1ccccc1Cl)N1CCc2sccc2C1", "max response", -2.92),
    ("O=C1NC(=O)C(=Cc2ccc(-c3ccc(F)cc3O)o2)S1", "max response", -7.89),
    ("Cn1cc(-c2ccc3nnc(Sc4ccc5ncccc5c4)n3n2)cn1", "max response", -0.0054),
]

###

Assay: qHTS profiling of the MIPE4 collection as inhibitors of Plasmodium falciparum (DD2) proliferation (AID 743345)
Conditions: P. falciparum Dd2 in erythrocytes, SYBR Green DNA, 72 h; at 28.5 µM (top of the series) unless noted
Cut-off 30% on parasite growth remaining, % of DMSO control (lower = more inhibition): below means True, at or above means False.

# compound, assigned.label
measured = [
    ("CN1CC(=O)N2C(Cc3c([nH]c4ccccc34)[C@H]2c2ccc3c(c2)OCO3)C1=O (stereo not given in full)", "True"),
    ("COc1cc(Nc2nc3ccccc3nc2NS(=O)(=O)c2ccc(NC(=O)c3ccc(C)c(OC)c3)cc2)cc(OC)c1", "False"),
    ("CNC(=O)c1cc(COc2nnc(Nc3ccc(Cl)cc3)c3ccoc23)ccn1", "False"),
    ("COc1ccc2nc3cc(Cl)ccc3c(Nc3cc(CN4CCCC4)c(O)c(CN4CCCC4)c3)c2n1", "True"),
]

###

Test: Quantitative High-Throughput drug screen in 47 multiple myeloma cell lines against the NCATS MIPE library collection: OPM1_PLB cell viability assay (AID 1918989); note: nearly all actives have a fitted effect of over 40% in size
Conditions: CellTiter-Glo, 48 h; series mostly up to 45.8 µM
Inconclusive results are not listed. Calls of active or inactive are those of the source. Calls come from the whole dose curve; as a rule, active = well fitted cell-killing curve with a large enough effect; inconclusive = small, poorly fitted or top-dose-only effect, or effect the other way; inactive = no such curve, though single readings can be large or run the other way.
Labels: YES = active, NO = inactive

# molecule, assigned.label
rows = [
    ("COc1ccc(C=CC(=O)Nc2ccccc2C(=O)O)cc1OC", "NO"),
    ("O=C(NC[C@H](O)CO)c1ccncc1Nc1ccc(I)cc1F", "YES"),
    ("O=C(c1ccc(F)c(F)c1Nc1ccc(I)cc1F)N1CC(O)([C@H]2CCCCN2)C1", "YES"),
    ("CN1CC(=O)N2C(Cc3c([nH]c4ccccc34)[C@H]2c2ccc3c(c2)OCO3)C1=O (some centres undefined)", "NO"),
    ("CCOC(=O)[C@H](CCc1ccccc1)N[C@@H](C)C(=O)N1CCCC1C(=O)O (some centres undefined)", "NO"),
    ("O=c1[nH]c(=O)n([C@H]2C[C@@H](O)[C@@H](CO)O2)cc1C(F)(F)F", "NO"),
    ("Oc1cc(O)cc(C=Cc2ccc(O)c(O)c2)c1", "YES"),
    ("O=C(Nc1cccc(Cl)c1)Nc1ncc(CCNc2ncnc3ccsc23)s1", "YES"),
    ("CNC1CCC(N(Cc2cccc(-c3ccncc3)c2)C(=O)c2sc3ccccc3c2Cl)CC1 (centres undefined)", "YES"),
    ("CN1CCN2c3ncccc3Cc3ccccc3C2C1 (centres undefined)", "NO"),
    ("CC(O)=C(C#N)C(=O)Nc1ccc(C(F)(F)F)cc1", "YES"),
    ("CC(C)(O)CC(=O)NCCn1ccc2ncnc(Nc3ccc(Oc4cccc(C(F)(F)F)c4)c(Cl)c3)c21", "YES"),
    ("CC[C@@H]([C@H](C)O)n1ncn(-c2ccc(N3CCN(c4ccc(OCC5CO[C@@](Cn6cncn6)(c6ccc(F)cc6F)C5)cc4)CC3)cc2)c1=O (some centres undefined)", "NO"),
    ("CC1CCN(c2cc(N3CCN(C)CC3)ccc2NC(=O)c2cc(C#N)c[nH]2)CC1", "NO"),
    ("CCNC(=O)[C@H]1O[C@@H](n2cnc3c(N)nc(NCCc4ccc(CCC(=O)O)cc4)nc32)[C@H](O)[C@H]1O", "NO"),
    ("CC(=O)OCC(=O)[C@@]12OC(C)(C)O[C@H]1C[C@H]1[C@@H]3C[C@H](F)C4=CC(=O)C=C[C@]4(C)[C@@]3(F)[C@@H](O)C[C@@]12C", "NO"),
    ("COc1ccc2nc3cc(Cl)ccc3c(Nc3cc(CN4CCCC4)c(O)c(CN4CCCC4)c3)c2n1", "YES"),
    ("CC1=C(C(=O)Nc2cc3cn[nH]c3cc2F)C(c2ccc(C(F)(F)F)cc2)CC(=O)N1 (centres undefined)", "NO"),
    ("NC1(C(=O)N[C@@H](CCO)c2ccc(Cl)cc2)CCN(c2ncnc3[nH]ccc23)CC1", "YES"),
]
